From: patent US10457707B2

System: Streptococcus pyogenes, ATCC 700294
Test: Minimal inhibitory concentration assay (microbroth dilution)
Format: cell-based
Details: Streptococcus pyogenes, ATCC700294, read-out: Minimal Inhibitory Concentrations S. pyogenes ATCC 700294
*1 amine or outer side, *2 acyl side, *3 side chain or, on linkers, in order; H or OH if unused. Where a SMILES comes first, the peptide text is derived from it. Bridges are numbered along the chain shown (N, C = ends). [ ]: non-standard residue; d: D form. The star is where a group is joined. ξ: configuration not given here. Phe(3,5-F2) = N[C@@H](Cc1cc(F)cc(F)c1)C(=O)O; NH(1-Me-indolin-5-yl) = CN1CCc2cc(N*)ccc21; Morpholine(3S-CO) = O=C(O)[C@@H]1COCCN1; Pro(4S-Me) = C[C@@H]1CN[C@H](C(=O)O)C1; Pro(4R-Me) = C[C@H]1CN[C@H](C(=O)O)C1; NHPh(4-CF3) = FC(F)(F)c1ccc(N*)cc1; Hyp = O=C(O)[C@@H]1C[C@@H](O)CN1; NH(4-Me-phenyl) = Cc1ccc(N*)cc1; ξNMeThr = CNC(C(=O)O)[C@@H](C)O; aThr = C[C@H](O)[C@H](N)C(=O)O; Pip = O=C(O)[C@@H]1CCCCN1; NMeA = CN[C@@H](C)C(=O)O; X3 = Cn1ccc2ccc(N*)cc21; CO = O=C([*:1])[*:2]
# maps each entry to its MIC
The number alone won't do; follow it with the unit.

Reference set (5 entries):
Cc1ccc(NC(=O)N[C@@H](Cc2cc(F)cc(F)c2)C(=O)N[C@H]2COC(=O)[C@@H]3C[C@@H](C)CN3C(=O)[C@H](C)NC(=O)C([C@@H](C)O)N(C)C(=O)[C@@H]3CCCN3C2=O)cc1 (stereo partly drawn) [Compound 322] ({NH(4-Me-phenyl)-CO}-[Phe(3,5-F2)]SP[ξNMeThr]A[Pro(4R-Me)]; ester 2-C) | 0.625 µM
Cc1ccc(NC(=O)N[C@@H](Cc2cc(F)cc(F)c2)C(=O)N[C@@H]2C(=O)N3C[C@H](O)C[C@H]3C(=O)N(C)[C@@H](C)C(=O)N[C@@H](C)C(=O)N3C[C@@H](C)C[C@H]3C(=O)O[C@H]2C)cc1 [Compound 214] ({NH(4-Me-phenyl)-CO}-[Phe(3,5-F2)][aThr][Hyp][NMeA]A[Pro(4S-Me)]; ester 2-C) | 0.781 µM
C[C@@H]1C[C@H]2C(=O)O[C@@H](C)[C@H](NC(=O)[C@H](Cc3cc(F)cc(F)c3)NC(=O)Nc3ccc4ccn(C)c4c3)C(=O)N3CCC[C@H]3C(=O)N3CCCC[C@H]3C(=O)N[C@@H](C)C(=O)N2C1 [Compound 306] ({X3-CO}-[Phe(3,5-F2)][aThr]P[Pip]A[Pro(4R-Me)]; ester 2-C) | 0.313 µM
C[C@@H]1C[C@H]2C(=O)OC[C@H](NC(=O)[C@H](Cc3ccccc3)NC(=O)Nc3ccccc3)C(=O)N3CCC[C@H]3C(=O)N3CCCC[C@H]3C(=O)N[C@@H](C)C(=O)N2C1 | 1.56 µM
C[C@@H]1C[C@H]2C(=O)O[C@@H](C)[C@H](NC(=O)[C@H](Cc3cc(F)cc(F)c3)NC(=O)Nc3ccc4c(c3)CCN4C)C(=O)N3CCC[C@H]3C(=O)N(C)C([C@@H](C)O)C(=O)N[C@@H](C)C(=O)N2C1 (stereo partly drawn) [Compound 311] ({NH(1-Me-indolin-5-yl)-CO}-[Phe(3,5-F2)][aThr]P[ξNMeThr]A[Pro(4R-Me)]; ester 2-C) | 0.156 µM

Request: Please provide the recorded MIC for C[C@H]1C[C@H]2C(=O)O[C@@H](C)[C@H](NC(=O)[C@H](Cc3cc(F)cc(F)c3)NC(=O)Nc3ccc(C(F)(F)F)cc3)C(=O)N3CCC[C@H]3C(=O)N3CCCC[C@H]3C(=O)N[C@@H](C)C(=O)N2C1 [Compound 19] ({NHPh(4-CF3)-CO}-[Phe(3,5-F2)][aThr]P[Pip]A[Pro(4S-Me)]; ester 2-C) , tested on Streptococcus pyogenes, ATCC 700294.
Result: 0.4 µM

Request: Repeat for the following compound: Cc1ccc(NC(=O)N[C@@H](Cc2cc(F)cc(F)c2)C(=O)N[C@H]2COC(=O)[C@@H]3C[C@@H](C)CN3C(=O)[C@H](C)NC(=O)[C@@H]3COCCN3C(=O)[C@@H]3C[C@@H](O)CN3C2=O)cc1 [Compound 317] ({NH(4-Me-phenyl)-CO}-[Phe(3,5-F2)]S[Hyp][Morpholine(3S-CO)]A[Pro(4R-Me)]; ester 2-C)
Result: 0.156 µM

---

Experiment: Cytotoxicity assay (CellTiter-Glo cell viability, 72 hours)
Format: cell-based
Conditions: African green monkey; Vero cells, 72 hours, growth inhibition; read-out: Cytotoxicity IC50
*1 amine or outer side, *2 acyl side, *3 side chain or, on linkers, in order; H or OH if unused. Where a SMILES comes first, the peptide text is derived from it. Bridges are numbered along the chain shown (N, C = ends). [ ]: non-standard residue; d: D form. The star is where a group is joined. ξ: configuration not given here. Phe(3,5-F2) = N[C@@H](Cc1cc(F)cc(F)c1)C(=O)O; Pro(4S-Me) = C[C@@H]1CN[C@H](C(=O)O)C1; Pro(4R-Me) = C[C@H]1CN[C@H](C(=O)O)C1; NMeaThr = CN[C@H](C(=O)O)[C@H](C)O; NMeT = CN[C@H](C(=O)O)[C@@H](C)O; NH(4-Me-phenyl) = Cc1ccc(N*)cc1; ξNMeThr = CNC(C(=O)O)[C@@H](C)O; aThr = C[C@H](O)[C@H](N)C(=O)O; Pip = O=C(O)[C@@H]1CCCCN1; X2 = CN1CCc2ccc(N*)cc21; CO = O=C([*:1])[*:2]
endpoint: IC50 at 72 h (µM)
// units = µM; emit number, no label

These solved cases illustrate the format of a correct answer.
Cc1ccc(NC(=O)N[C@@H](Cc2cc(F)cc(F)c2)C(=O)N[C@@H]2C(=O)N3CCC[C@H]3C(=O)N(C)[C@@H]([C@H](C)O)C(=O)N[C@@H](C)C(=O)N3C[C@H](C)C[C@H]3C(=O)O[C@H]2C)cc1 [Compound 208] ({NH(4-Me-phenyl)-CO}-[Phe(3,5-F2)][aThr]P[NMeaThr]A[Pro(4R-Me)]; ester 2-C) | 46.1
C[C@@H]1C[C@H]2C(=O)O[C@@H](C)[C@H](NC(=O)[C@H](Cc3cc(F)cc(F)c3)NC(=O)Nc3ccc4c(c3)N(C)CC4)C(=O)N3CCC[C@H]3C(=O)N3CCCC[C@H]3C(=O)N[C@@H](C)C(=O)N2C1 [Compound 321] ({X2-CO}-[Phe(3,5-F2)][aThr]P[Pip]A[Pro(4R-Me)]; ester 2-C) | 1.39
Cc1ccc(NC(=O)N[C@@H](Cc2cc(F)cc(F)c2)C(=O)N[C@H]2COC(=O)[C@@H]3C[C@@H](C)CN3C(=O)[C@H](C)NC(=O)C([C@@H](C)O)N(C)C(=O)[C@@H]3CCCN3C2=O)cc1 (stereo partly drawn) [Compound 322] ({NH(4-Me-phenyl)-CO}-[Phe(3,5-F2)]SP[ξNMeThr]A[Pro(4R-Me)]; ester 2-C) | 47.8

Turning now to a further record.
Request: Return reported IC50 at 72 h; argument: Cc1ccc(NC(=O)N[C@@H](Cc2cc(F)cc(F)c2)C(=O)N[C@@H]2C(=O)N3CCC[C@H]3C(=O)N(C)[C@@H]([C@@H](C)O)C(=O)N[C@@H](C)C(=O)N3C[C@@H](C)C[C@H]3C(=O)O[C@H]2C)cc1 [Compound 35] ({NH(4-Me-phenyl)-CO}-[Phe(3,5-F2)][aThr]P[NMeT]A[Pro(4S-Me)]; ester 2-C)
Result: 55.7
